Reference source: ChEMBL document CHEMBL2218924

Item-by-item account of residual activity
TARGET DESC: Serine/threonine-protein kinase D2 (Homo sapiens)
Sequence (whole entry): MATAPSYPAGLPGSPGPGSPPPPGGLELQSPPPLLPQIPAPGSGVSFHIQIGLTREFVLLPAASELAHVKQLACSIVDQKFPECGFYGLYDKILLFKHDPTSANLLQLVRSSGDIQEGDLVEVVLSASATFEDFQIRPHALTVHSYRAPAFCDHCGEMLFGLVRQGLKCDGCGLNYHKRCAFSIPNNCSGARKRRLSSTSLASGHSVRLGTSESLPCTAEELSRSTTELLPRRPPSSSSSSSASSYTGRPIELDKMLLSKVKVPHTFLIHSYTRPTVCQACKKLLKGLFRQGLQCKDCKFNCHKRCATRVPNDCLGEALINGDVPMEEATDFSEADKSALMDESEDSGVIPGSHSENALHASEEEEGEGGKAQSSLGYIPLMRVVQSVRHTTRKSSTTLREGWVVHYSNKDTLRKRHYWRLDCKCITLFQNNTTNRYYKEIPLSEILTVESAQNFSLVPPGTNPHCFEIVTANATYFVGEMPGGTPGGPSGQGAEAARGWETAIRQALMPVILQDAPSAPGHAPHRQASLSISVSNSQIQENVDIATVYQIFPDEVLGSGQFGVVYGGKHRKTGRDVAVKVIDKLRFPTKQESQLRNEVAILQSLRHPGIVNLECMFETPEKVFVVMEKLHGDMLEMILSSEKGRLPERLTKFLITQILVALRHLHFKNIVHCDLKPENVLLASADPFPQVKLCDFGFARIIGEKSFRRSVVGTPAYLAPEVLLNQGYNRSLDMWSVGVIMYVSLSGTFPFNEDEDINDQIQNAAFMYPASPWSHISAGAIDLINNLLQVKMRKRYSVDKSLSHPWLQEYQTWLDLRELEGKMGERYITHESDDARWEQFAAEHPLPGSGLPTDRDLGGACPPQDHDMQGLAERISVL
PARTICULARS: at 10 µM

TEST SMILES | TARGET DESC | residual activity, %
N#Cc1cnc2cnc(NCc3cccnc3)cc2c1Nc1ccc(F)c(Cl)c1 | Serine/threonine-protein kinase D2 (Homo sapiens) | 91
Nc1cccc(-c2cc3c(Oc4cccc(O)c4)ncnc3[nH]2)c1 | Serine/threonine-protein kinase D2 (Homo sapiens) | 54
COc1cc2ncnc(N3CCN(C(=O)Nc4ccc(Oc5ccccc5)cc4)CC3)c2cc1OC | Serine/threonine-protein kinase D2 (Homo sapiens) | 99
COc1cc2ncnc(Nc3ccc(O)c(Br)c3)c2cc1OC | Serine/threonine-protein kinase D2 (Homo sapiens) | 79
COc1cc2ncnc(Nc3ccc(NC(=O)c4ccccc4)cc3)c2cc1OC | Serine/threonine-protein kinase D2 (Homo sapiens) | 106
O=Nc1c(-c2c(O)[nH]c3ccccc23)[nH]c2ccccc12 | Serine/threonine-protein kinase D2 (Homo sapiens) | 98
CCOc1cc2ncnc(Nc3cccc(Br)c3)c2cc1OCC | Serine/threonine-protein kinase D2 (Homo sapiens) | 113
C[C@@H](N)[C@H]1CC[C@H](C(=O)Nc2ccncc2)CC1 | Serine/threonine-protein kinase D2 (Homo sapiens) | 112
O=C1c2ccccc2-[n+]2ccc3c([nH]c4ccccc43)c21 | Serine/threonine-protein kinase D2 (Homo sapiens) | 100
O=C1NC(=O)c2c1c1c3ccccc3[nH]c1c1[nH]c3cc(Br)ccc3c21 | Serine/threonine-protein kinase D2 (Homo sapiens) | 90
COc1cc2ncnc(Nc3ccc(Oc4ccccc4)cc3)c2cc1OC | Serine/threonine-protein kinase D2 (Homo sapiens) | 106
Cc1nc2cc3nc(-c4cccs4)cnc3cc2n1C | Serine/threonine-protein kinase D2 (Homo sapiens) | 105
CC(C)n1cnc2/c(=N/c3cccc(Cl)c3)nc(NCCO)[nH]c21 | Serine/threonine-protein kinase D2 (Homo sapiens) | 93
Oc1n[nH]c2nnc(-c3c(-c4ccccc4)nn4ccccc34)cc12 | Serine/threonine-protein kinase D2 (Homo sapiens) | 98
O=C1NC(=O)/C(=C\c2ccc3nccnc3c2)S1 | Serine/threonine-protein kinase D2 (Homo sapiens) | 96
COc1ccc(C(=O)Nc2sc3c(c2C(N)=O)CCCC3)cc1OC | Serine/threonine-protein kinase D2 (Homo sapiens) | 108
Cc1cccc(-c2[nH]c(C(C)(C)C)nc2-c2ccc3c(c2)OCO3)n1 | Serine/threonine-protein kinase D2 (Homo sapiens) | 106
Ic1cccc(CSc2nnc(-c3ccncc3)o2)c1 | Serine/threonine-protein kinase D2 (Homo sapiens) | 98
O=C1NC(=O)c2cc(Nc3ccc(F)cc3)c(Nc3ccc(F)cc3)cc21 | Serine/threonine-protein kinase D2 (Homo sapiens) | 89
Nc1nc(Nc2ccc(S(N)(=O)=O)cc2)nn1C(=S)Nc1c(F)cccc1F | Serine/threonine-protein kinase D2 (Homo sapiens) | 6
